meta.source: the supplement of paper PMC11619387

test system: Pseudomonas aeruginosa PAO1-Xen41; test: EC50 of growth/kill rate concentration-effect curve; settings: medium (conditioned by secondary species or non-conditioned control): M. abcessus
Flag rule - EC50 less than 5 µg/mL flags MET; the remaining entries get NOT MET.

>>> category("CCC(C)CCCC(=O)N[C@@H](CCN)C(=O)N[C@H](C(=O)N[C@@H](CCN)C(=O)N[C@H]1CCNC(=O)[C@H]([C@@H](C)O)NC(=O)[C@H](CCN)NC(=O)[C@H](CCN)NC(=O)[C@H](CC(C)C)NC(=O)[C@@H](CC(C)C)NC(=O)[C@H](CCN)NC1=O)[C@@H](C)O (some centres undefined) [colistin]")
"MET"
>>> category("CC(C)(O/N=C(\\C(=O)N[C@@H]1C(=O)N2C(C(=O)[O-])=C(C[n+]3ccccc3)CS[C@H]12)c1csc(N)n1)C(=O)O [ceftazidime]")
"MET"
>>> category("C[C@@H](O)[C@H]1C(=O)N2C(C(=O)O)=C(S[C@@H]3CN[C@H](C(=O)N(C)C)C3)[C@H](C)[C@H]12 [meropenem]")
"MET"
>>> category("O=C(O)c1cn(C2CC2)c2cc(N3CCNCC3)c(F)cc2c1=O [ciprofloxacin]")
"MET"
>>> category("CO[C@H]1/C=C/O[C@@]2(C)Oc3c(C)c(O)c4c(O)c(c(/C=N/N5CCN(C)CC5)c(O)c4c3C2=O)NC(=O)/C(C)=C\\C=C\\[C@H](C)[C@H](O)[C@@H](C)[C@@H](O)[C@@H](C)[C@H](OC(C)=O)[C@@H]1C [rifampicin]")
"NOT MET"
>>> category("C[C@H]1[C@H](NC(=O)/C(=N\\OC(C)(C)C(=O)O)c2csc(N)n2)C(=O)N1S(=O)(=O)O [aztreonam]")
"MET"
>>> category("C[C@@H]1O[C@@H]1P(=O)(O)O [fosfomycin]")
"NOT MET"
>>> category("CN(C)c1ccc(O)c2c1C[C@H]1C[C@H]3[C@H](N(C)C)C(O)=C(C(N)=O)C(=O)[C@@]3(O)C(O)=C1C2=O [minocycline]")
"NOT MET"
>>> category("NC[C@H]1O[C@H](O[C@H]2[C@H](O)[C@@H](O[C@H]3O[C@H](CO)[C@@H](O)[C@H](N)[C@H]3O)[C@H](N)C[C@@H]2N)[C@H](N)C[C@@H]1O [tobramycin]")
"MET"
